Tested on: P388 leukemia ip, CD2F1 mice, survival T/C
Assay: NCI In Vivo Anticancer Drug Screen. Data for tumor model P388 Leukemia (intraperitoneal) in CD2F1 (CDF1) mice
Conditions: endpoint: median survival time; dose: 15.0 mg/kg/injection; schedule: Q01DX005 (ip); vehicle: saline with Tween-80; higher = longer survival
Toxic doses and inconclusive results are not listed.
Would you mind telling me the reported T/C of each entry?

get_value(item= `Cc1ccoc1` , readout=T/C) returns 100 % of control

get_value(item= `CCOC(=O)c1[nH]cnc1N` , readout=T/C) returns 104 % of control

get_value(item= COc1cc(O)c2c(c1)C(=O)C1=C(C2=O)[C@@H](C)OC(C)C1 (some centres undefined) , readout=T/C) returns 94 % of control

get_value(item= `O=C1C(=O)c2ncccc2-c2ncccc21` , readout=T/C) returns 95 % of control
